Measured values drawn from patent US20180008573A1 for this set.

Tested on: C. elegans strain CB5586
Assay: C. elegans phenotypic lifespan screening (Kaplan-Meier, Log-Rank, Fisher's Exact Test)
Type: in vivo
Settings: 0.1 mg/ml vs. DMSO control
Reported values of % Change in Mean Lifespan for individual entries
READOUT_LABEL: % Change in Mean Lifespan (%)

- COMPOUND: "C[C@@H]1O[C@@H](OC[C@H]2O[C@@H](Oc3c(-c4ccc(O)c(O)c4)oc4cc(O)cc(O)c4c3=O)[C@H](O)[C@@H](O)[C@@H]2O)[C@H](O)[C@H](O)[C@H]1O [N346, rutin hydrate]"
  TARGET: "C. elegans strain CB5586"
  ENDPOINT_RESULT: "−8"
- COMPOUND: "O=c1c(O)c(-c2ccc(O)c(O)c2)oc2cc(O)cc(O)c12 [Quercetin]"
  TARGET: "C. elegans strain CB5586"
  ENDPOINT_RESULT: "−9"
